# Tested on: MS2 coat protein
# ASSAY INFO: apparent Kd, MS2 coat protein; higher = weaker binding; RNA-MaP array
# CONDITION INFO: designed as: ON switch for flavin mononucleotide; no ligand
Exercise: for every item that follows, state its recorded apparent Kd.
Give the value in nM but do not write nM after it.

Request: Provide measured apparent Kd value, entry: AUCACAACCAAGAAGGGUCAGAUAACUCGAGAGACAGGAUAUUGAACAACAUAGUCAACAUGAGGAUCACCCAUGUAAAAUAAA
Response: 54

Request: Provide measured apparent Kd value, entry: CCAUGGAGGACUGAGGAUAUUCGCAUAAGCACAUGAGGAUCACCCAUGUCAGAAAUAAAUCUCUAGAAGAAGGCAGCGCUAAGACA
Response: 12.9

Request: Provide measured apparent Kd value, entry: UAACGUAGCCGAGGAUAUAGUAGCGAUCAACAGAAACAUGAGGAUCACCCAUGUGCCACAAAAGACUAGAAGGCGGGCAACCCA
Response: 15.4

Request: Provide measured apparent Kd value, entry: GGAAAACCUCGAGGAUAUAGCACAUGAGGAUCACCCAUGUACCAUAAGUGUUGACAAAAGAGAGACUAGAAGGCGAAUCAAACC
Response: 13.1

Request: Provide measured apparent Kd value, entry: AUAGAACAUGAGGAUCACCCAUGUAGAAAAUCAGCAGGAUAUGUGAUCACUCCGUAAUUGACAGAAGGGCUAACAA
Response: 68.2

Request: Provide measured apparent Kd value, entry: GCUAUAUUUGAGAAGGGAGGAUGCUUCACAGAGCUUAGACCAGACAUGAGGAUCACCCAUGUGCCUCAGGAUAUCAAUAUCGAU
Response: 27.3

Request: Provide measured apparent Kd value, entry: UGGGAUAGCCAGAAGGUGGAAGCAACAACUGUCCAAGGAUAUGGUUGUUAUAAGGCAUCACACAUGAGGAUCACCCAUGUUAAU
Response: 83.2

Recorded values, source the EternaBench riboswitch data.
